Values compiled from patent US9187413B2.

# procedure_summary: Drug transport assay through polarized TC7 monolayers
# Type: in vitro ADME
# measurement_parameters: human, Caco-2; TC7 monolayers, 10 μM compound, mean of 2 independent experiments; read-out: permeability A-B

[
  {
    "structure_string": "NC(=O)c1cccc(-c2cc(OC(=O)NC3CCCCC3)ccc2O)c1",
    "unit_name": "×10⁻⁶ cm/s",
    "Papp A→B at 10 μM": 3.8
  }
]

----------
# procedure_summary: Drug transport assay through polarized TC7 monolayers
# Assay type: in vitro ADME
# measurement_parameters: human, Caco-2; TC7 monolayers, 10 μM compound, mean of 2 independent experiments; read-out: permeability B-A

[
  {
    "compound": "NC(=O)c1cccc(-c2cc(OC(=O)NC3CCCCC3)ccc2O)c1 [Compound 1b]",
    "Papp B→A at 10 μM [×10⁻⁶ cm/s]": 37.1
  }
]
